All values here come from the Immune Epitope Database (IEDB).

biological target: HLA-A*30:02; experiment: IEDB peptide-MHC binding, purified MHC/competitive/radioactivity; filed as Kd, often an IC50 or EC50 that approximates it; bounds were set here for any values at or beyond the usual limits of such assays; conditions: source organism: Dengue virus 4 Philippines/H241/1956
readout.kind: Kd (nM)
Quick reminder: number only, in nM, skip the unit.

• FSQHNYRQGY = 1250

[in] Quick check: Kd on HLA-A*30:02, item IISSTPFAEY ?
[out] 36.9

* * *

target: HLA-B*18:01; assay: IEDB peptide-MHC binding, purified MHC/direct/fluorescence; filed as Kd, often an IC50 or EC50 that approximates it; bounds were set here for any values at or beyond the usual limits of such assays; conditions: source organism: Giardia intestinalis
readout.kind: Kd
Be sure to follow the number with its unit.

[in] What does the record list as Kd for LEKWNLGII ?
[out] 1140 nM
